Hello, the source for this data is paper PMC7070908, in case you need it.

Assignment: determine reported MM Cells % Alive U266 for the given compounds.
# Tested on: U266 myeloma cell line
# assayComment: Cytotoxicity, flow cytometry (AnnexinV/propidium iodide negativity), U266
# Format: cell-based, human
# assayContext: 25 µM, 24 h, second round (Table 3)
Value expressed in %; do not type the unit.

[ask] Report MM Cells % Alive U266 for CC(=O)OC(C)(C)C1OC23OC1CC(C)C2C1(C)CCC24CC25CCC(OC2OCC(O)C(O)C2O)C(C)(C)C5CCC4C1(C)C3O (stereo not shown) [Compound 3] tested on U266 myeloma cell line.
[reply] 77.8

[ask] Report MM Cells % Alive U266 for COC(C)(C)C1OC23OC1CC(C)C2C1(C)CCC24CC25CCC(OC2OCC(O)C(O)C2O)C(C)(C)C5CCC4C1(C)C3O (stereo not shown) [Compound 8] tested on U266 myeloma cell line.
[reply] 97.5

[ask] Report MM Cells % Alive U266 for CC1CC2OC3(OC2C(C)(C)O)C1C1(C)CCC24CC25CCC(OC2OCC(O)C(O)C2O)C(C)(C)C5CCC4C1(C)C3O [Compound 6, cimigenol-3-O-β-D-xylopyranoside] tested on U266 myeloma cell line.
[reply] 94.5

[ask] Report MM Cells % Alive U266 for C=C(C)C1OC23OC1CC(C)C2C1(C)CCC24CC25CCC(OC2OCC(O)C(O)C2O)C(C)(C)C5CCC4C1(C)C3O (stereo not shown) tested on U266 myeloma cell line.
[reply] 101.8
